Numbers sourced from the supplement of paper PMC5998384.

- Test system: HeLa Kyoto
- Procedure text: solubility in G1/S (NP-40 vs SDS abundance) (log2 ratio); higher = more soluble
- Conditions: cell cycle stage: G1/S
Observed property: solubility in G1/S (log2)

INSERT INTO measurements (sequence_text, target_under_test, observed_property, quantitative_readout) VALUES
  ('MPLENLEEEGLPKNPDLRIAQLRFLLSLPEHRGDAAVRDELMAAVRDNNMAPYYEALCKSLDWQIDVDLLNKMKKANEDELKRLDEELEDAEKNLGESEIRDAMMAKAEYLCRIGDKEGALTAFRKTYDKTVALGHRLDIVFYLLRIGLFYMDNDLITRNTEKAKSLIEEGGDWDRRNRLKVYQGLYCVAIRDFKQAAELFLDTVSTFTSYELMDYKTFVTYTVYVSMIALERPDLREKVIKGAEILEVLHSLPAVRQYLFSLYECRYSVFFQSLAVVEQEMKKDWLFAPHYRYYVREMRIHAYSQLLESYRSLTLGYMAEAFGVGVEFIDQELSRFIAAGRLHCKIDKVNEIVETNRPDSKNWQYQETIKKGDLLLNRVQKLSRVINM [PSMD6]', 'HeLa Kyoto', 'solubility in G1/S (log2)', -0.15),
  ('MTGQGQSASGSSAWSTVFRHVRYENLIAGVSGGVLSNLALHPLDLVKIRFAVSDGLELRPKYNGILHCLTTIWKLDGLRGLYQGVTPNIWGAGLSWGLYFFFYNAIKSYKTEGRAERLEATEYLVSAAEAGAMTLCITNPLWVTKTRLMLQYDAVVNSPHRQYKGMFDTLVKIYKYEGVRGLYKGFVPGLFGTSHGALQFMAYELLKLKYNQHINRLPEAQLSTVEYISVAALSKIFAVAATYPYQVVRARLQDQHMFYSGVIDVITKTWRKEGVGGFYKGIAPNLIRVTPACCITFVVYENVSHFLLDLREKRK [SLC25A32]', 'HeLa Kyoto', 'solubility in G1/S (log2)', -0.199),
  ('MSTKNFRVSDGDWICPDKKCGNVNFARRTSCNRCGREKTTEAKMMKAGGTEIGKTLAEKSRGLFSANDWQCKTCSNVNWARRSECNMCNTPKYAKLEERTGYGGGFNERENVEYIEREESDGEYDEFGRKKKKYRGKAVGPASILKEVEDKESEGEEEDEDEDLSKYKLDEDEDEDDADLSKYNLDASEEEDSNKKKSNRRSRSKSRSSHSRSSSRSSSPSSSRSRSRSRSRSSSSSQSRSRSSSRERSRSRGSKSRSSSRSHRGSSSPRKRSYSSSSSSPERNRKRSRSRSSSSGDRKKRRTRSRSPERRHRSSSGSSHSGSRSSSKKK [ZRANB2]', 'HeLa Kyoto', 'solubility in G1/S (log2)', -0.0186),
  ('MAGPRVEVDGSIMEGGGQILRVSTALSCLLGLPLRVQKIRAGRSTPGLRPQHLSGLEMIRDLCDGQLEGAEIGSTEITFTPEKIKGGIHTADTKTAGSVCLLMQVSMPCVLFAASPSELHLKGGTNAEMAPQIDYTVMVFKPIVEKFGFIFNCDIKTRGYYPKGGGEVIVRMSPVKQLNPINLTERGCVTKIYGRAFVAGVLPFKVAKDMAAAAVRCIRKEIRDLYVNIQPVQEPKDQAFGNGNGIIIIAETSTGCLFAGSSLGKRGVNADKVGIEAAEMLLANLRHGGTVDEYLQDQLIVFMALANGVSRIKTGPVTLHTQTAIHFAEQIAKAKFIVKKSEDEEDAAKDTYIIECQGIGMTNPNL [RTCA]', 'HeLa Kyoto', 'solubility in G1/S (log2)', 0.177);

====

- System: HeLa Kyoto
- Procedure text: solubility change mitosis vs G1/S (difference of NP-40 vs SDS log2 ratios) (log2 ratio difference); higher = more soluble in mitosis
Kind request: treat -0.002 as inclusive, so solubility change mitosis (log2) at -0.002 or higher is TRUE, anything lower is FALSE.

INSERT INTO measurements (sequence_text, group) VALUES
  ('MATLRRLREAPRHLLVCEKSNFGNHKSRHRHLVQTHYYNYRVSFLIPECGILSEELKNLVMNTGPYYFVKNLPLHELITPEFISTFIKKGSCYALTYNTHIDEDNTVALLPNGKLILSLDKDTYEETGLQGHPSQFSGRKIMKFIVSIDLMELSLNLDSKKYERISWSFKEKKPLKFDFLLAWHKTGSEESTMMSYFSKYQIQEHQPKVALSTLRDLQCPVLQSSELEGTPEVSCRALELFDWLGAVFSNVDLNNEPNNFISTYCCPEPSTVVAKAYLCTITGFILPEKICLLLEHLCHYFDEPKLAPWVTLSVQGFADSPVSWEKNEHGFRKGGEHLYNFVIFNNQDYWLQMAVGANDHCPP [RPP40]', 'FALSE'),
  ('MGKVRGLRARVHQAAVRPKGEAAPGPAPPAPEATPPPASAAGKDWAFINTNIFARTKIDPSALVQKLELDVRSVTSVRRGEAGSSARSVPSIRRGAEAKTVLPKKEKMKLRREQWLQKIEAIKLAEQKHREERRRRATVVVGDLHPLRDALPELLGLEAGSRRQARSRESNKPRPSELSRMSAAQRQQLLEEERTRFQELLASPAYRASPLVAIGQTLARQMQLEDGGQL [FAM207A]', 'TRUE'),
  ('MAASTASHRPIKGILKNKTSTTSSMVASAEQPRGNVDEELSKKSQKWDEMNILATYHPADKDYGLMKIDEPSTPYHSMMGDDEDACSDTEATEAMAPDILARKLAAAEGLEPKYRIQEQESSGEEDSDLSPEEREKKRQFEMKRKLHYNEGLNIKLARQLISKDLHDDDEDEEMLETADGESMNTEESNQGSTPSDQQQNKLRSS [PPP1R2]', 'TRUE'),
  ('MASPQLCRALVSAQWVAEALRAPRAGQPLQLLDASWYLPKLGRDARREFEERHIPGAAFFDIDQCSDRTSPYDHMLPGAEHFAEYAGRLGVGAATHVVIYDASDQGLYSAPRVWWMFRAFGHHAVSLLDGGLRHWLRQNLPLSSGKSQPAPAEFRAQLDPAFIKTYEDIKENLESRRFQVVDSRATGRFRGTEPEPRDGIEPGHIPGTVNIPFTDFLSQEGLEKSPEEIRHLFQEKKVDLSKPLVATCGSGVTACHVALGAYLCGKPDVPIYDGSWVEWYMRARPEDVISEGRGKTH [MPST]', 'FALSE'),
  ('MSRQAKDDFLRHYTVSDPRTHPKGYTEYKVTAQFISKKDPEDVKEVVVWKRYSDFRKLHGDLAYTHRNLFRRLEEFPAFPRAQVFGRFEASVIEERRKGAEDLLRFTVHIPALNNSPQLKEFFRGGEVTRPLEVSRDLHILPPPLIPTPPPDDPRLSQLLPAERRGLEELEVPVDPPPSSPAQEALDLLFNCESTEEASGSPARGPLTEAELALFDPFSKEEGAAPSPTHVAELATMEVESARLDQEPWEPGGQEEEEDGEGGPTPAYLSQATELITQALRDEKAGAYAAALQGYRDGVHVLLQGVPSDPLPARQEGVKKKAAEYLKRAEEILRLHLSQLPP [SNX15]', 'FALSE'),
  ('MAPSLWKGLVGIGLFALAHAAFSAAQHRSYMRLTEKEDESLPIDIVLQTLLAFAVTCYGIVHIAGEFKDMDATSELKNKTFDTLRNHPSFYVFNHRGRVLFRPSDTANSSNQDALSSNTSLKLRKLESLRR [MMGT1]', 'FALSE');

====

- Test system: HeLa Kyoto
- Procedure text: melting temperature (median over replicates), in situ; higher = more thermally stable
- Conditions: cell cycle stage: G1/S
Observed property: melting temperature (°C)

INSERT INTO results (sequence_text, unit_of_measurement, quantitative_readout) VALUES
  ('MTLIEGVGDEVTVLFSVLACLLVLALAWVSTHTAEGGDPLPQPSGTPTPSQPSAAMAATDSMRGEAPGAETPSLRHRGQAAQPEPSTGFTATPPAPDSPQEPLVLRLKFLNDSEQVARAWPHDTIGSLKRTQFPGREQQVRLIYQGQLLGDDTQTLGSLHLPPNCVLHCHVSTRVGPPNPPCPPGSEPGPSGLEIGSLLLPLLLLLLLLLWYCQIQYRPFFPLTATLGLAGFTLLLSLLAFAMYRP [TMUB1]', '°C', 51.6),
  ('MGSTESSEGRRVSFGVDEEERVRVLQGVRLSENVVNRMKEPSSPPPAPTSSTFGLQDGNLRAPHKESTLPRSGSSGGQQPSGMKEGVKRYEQEHAAIQDKLFQVAKREREAATKHSKASLPTGEGSISHEEQKSVRLARELESREAELRRRDTFYKEQLERIERKNAEMYKLSSEQFHEAASKMESTIKPRRVEPVCSGLQAQILHCYRDRPHEVLLCSDLVKAYQRCVSAAHKG [CHCHD6]', '°C', 54.7);

====

- Tested on: HeLa Kyoto
- Procedure text: solubility in G1/S (NP-40 vs SDS abundance) (log2 ratio); higher = more soluble
- Conditions: cell cycle stage: G1/S
Kind request: treat 0.3 as inclusive, so solubility in G1/S (log2) at 0.3 or higher is met, anything lower is not met.

INSERT INTO assay_data (substance, group) VALUES
  ('MAELTALESLIEMGFPRGRAEKALALTGNQGIEAAMDWLMEHEDDPDVDEPLETPLGHILGREPTSSEQGGLEGSGSAAGEGKPALSEEERQEQTKRMLELVAQKQREREEREEREALERERQRRRQGQELSAARQRLQEDEMRRAAEERRREKAEELAARQRVREKIERDKAERAKKYGGSVGSQPPPVAPEPGPVPSSPSQEPPTKREYDQCRIQVRLPDGTSLTQTFRAREQLAAVRLYVELHRGEELGGGQDPVQLLSGFPRRAFSEADMERPLQELGLVPSAVLIVAKKCPS [UBXN1]', 'met'),
  ('ARHGAP4', 'not met'),
  ('MSKPPPKPVKPGQVKVFRALYTFEPRTPDELYFEEGDIIYITDMSDTNWWKGTSKGRTGLIPSNYVAEQAESIDNPLHEAAKRGNLSWLRECLDNRVGVNGLDKAGSTALYWACHGGHKDIVEMLFTQPNIELNQQNKLGDTALHAAAWKGYADIVQLLLAKGARTDLRNIEKKLAFDMATNAACASLLKKKQGTDAVRTLSNAEDYLDDEDSD [OSTF1]', 'met'),
  ('MAFLRSMWGVLSALGRSGAELCTGCGSRLRSPFSFVYLPRWFSSVLASCPKKPVSSYLRFSKEQLPIFKAQNPDAKTTELIRRIAQRWRELPDSKKKIYQDAYRAEWQVYKEEISRFKEQLTPSQIMSLEKEIMDKHLKRKAMTKKKELTLLGKPKRPRSAYNVYVAERFQEAKGDSPQEKLKTVKENWKNLSDSEKELYIQHAKEDETRYHNEMKSWEEQMIEVGRKDLLRRTIKKQRKYGAEEC [TFAM]', 'met'),
  ('MGRSRSRSSSRSKHTKSSKHNKKRSRSRSRSRDKERVRKRSKSRESKRNRRRESRSRSRSTNTAVSRRERDRERASSPPDRIDIFGRTVSKRSSLDEKQKREEEEKKAEFERQRKIRQQEIEEKLIEEETARRVEELVAKRVEEELEKRKDEIEREVLRRVEEAKRIMEKQLLEELERQRQAELAAQKAREEEERAKREELERILEENNRKIAEAQAKLAEEQLRIVEEQRKIHEERMKLEQERQRQQKEEQKIILGKGKSRPKLSFSLKTQD [ARGLU1]', 'not met');
